Cited source: paper PMC9482650

target: GRID2IP_2, A4D2P6; assay: holdup assay; design: key: below the threshold = too weak to quantify, mostly under pKd 3.1 to 4; details: plain residues with an end cap or a label only (N-terminal biotin on a linker: ado-ado)
Sequence (A4D2P6 272-370): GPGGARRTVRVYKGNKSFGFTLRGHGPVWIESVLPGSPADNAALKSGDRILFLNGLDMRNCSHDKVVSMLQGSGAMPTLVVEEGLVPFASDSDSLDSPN

{"binder": "RRRESYSTTV [EVI5, O60447]", "pKd": 4.34}
{"binder": "SAKVRTVTSV [RASL11B, Q9BPW5]", "pKd": 4.2}
